Reference for the values: paper PMC8397403

Tested on: plated rat hepatocytes
Assay: In vitro uptake kinetics of gadoxetate in plated rat hepatocytes (mechanistic hepatocyte model)
Format: in vitro ADME
Details: animal 4; read-out: Km,u
experimental readout: Km (µM)
Answer format: numeric, µM implied, no suffix.

GET /value?item= CCOc1ccc(C[C@@H](CN(CCN(CC(=O)[O-])CC(=O)[O-])CC(=O)[O-])N(CC(=O)[O-])CC(=O)[O-])cc1.[Gd+3].[H+].[H+] [gadoxetate] &field=Km returns 115
